These measurements were taken from BindingDB's records for doi:10.1021/jm00020a029.

# Experiment: Evaluated for the activation of human thrombin receptor measured by platelet aggregation
Where a SMILES comes first, the peptide text is derived from it. [ ]: non-standard residue; d: D form. Phe(4-F) = N[C@@H](Cc1ccc(F)cc1)C(=O)O; Cha = N[C@@H](CC1CCCCC1)C(=O)O
Readout kind: EC50 (µM)

Solved cases below.
Ask | Can you look up the measured EC50 of CC(C)C[C@H](NC(=O)[C@H](CC(C)C)NC(=O)[C@H](Cc1ccccc1)NC(=O)[C@@H](N)CO)C(=O)N[C@@H](C)C(N)=O (H-SFLLA-NH2) for me?
Reply | 70

Ask | Can you look up the measured EC50 of CC(C)C[C@H](NC(=O)[C@H](CC(C)C)NC(=O)[C@H](CC1CCCCC1)NC(=O)[C@H](C)N)C(=O)N[C@@H](CCCNC(=N)N)C(N)=O (H-A[Cha]LLR-NH2) for me?
Reply | 28

[P] CC(C)C[C@H](NC(=O)[C@H](Cc1ccccc1)NC(=O)[C@@H](N)CO)C(=O)N[C@H](CC(C)C)C(=O)N[C@@H](CCCNC(=N)N)C(N)=O
[Q] CC(C)C[C@H](NC(=O)[C@H](Cc1ccc(F)cc1)NC(=O)[C@H](C)N)C(=O)N[C@@H](CC1CCCCC1)C(=O)N[C@@H](CCCNC(=N)N)C(N)=O (H-A[Phe(4-F)]L[Cha]R-NH2)
[R] CC(C)C[C@H](NC(=O)[C@H](CC(C)C)NC(=O)[C@H](Cc1ccccc1)NC(=O)[C@@H](N)CO)C(N)=O (H-SFLL-NH2)
[S] CC(C)C[C@H](NC(=O)[C@H](Cc1ccccc1)NC(=O)[C@H](C)N)C(=O)N[C@@H](CC1CCCCC1)C(=O)N[C@@H](CCCNC(=N)N)C(N)=O (H-AFL[Cha]R-NH2)
Ask | hey, can you rank those compounds up there by EC50? biggest number first please Please list the labels in the order you were asked to rank them.
Reply | P, R, S, Q
(P: 500 µM, R: 185 µM, S: 0.4 µM, Q: 0.14 µM)

====

# Experiment: Evaluated for the activation of human thrombin receptor measured by platelet aggregation
*1 amine or outer side, *2 acyl side, *3 side chain or, on linkers, in order; H or OH if unused. Where a SMILES comes first, the peptide text is derived from it. [ ]: non-standard residue; d: D form. Phe(3,4-Cl2) = N[C@@H](Cc1ccc(Cl)c(Cl)c1)C(=O)O; X1 = COc1c(I)cc(C[C@H](N[*:1])C(=O)[*:2])cc1I; Phe(4-CH2NH2) = NCc1ccc(C[C@H](N)C(=O)O)cc1; Phe(4-F) = N[C@@H](Cc1ccc(F)cc1)C(=O)O; Cha = N[C@@H](CC1CCCCC1)C(=O)O; Aib = CC(C)(N)C(=O)O
Readout kind: EC50 (µM)

Ask | Can you look up the measured EC50 of COc1c(I)cc(C[C@H](NC(=O)[C@H](Cc2ccc(Cl)c(Cl)c2)NC(=O)[C@H](C)N)C(=O)N[C@@H](CC2CCCCC2)C(=O)N[C@@H](CCCNC(=N)N)C(N)=O)cc1I (H-A[Phe(3,4-Cl2)][X1][Cha]R-NH2) for me?
Reply | 0.01

Ask | Can you look up the measured EC50 of CC(C)C[C@H](NC(=O)[C@H](CC(C)C)NC(=O)[C@H](Cc1ccccc1)NC(=O)[C@H](N)CO)C(=O)N[C@@H](CCCNC(=N)N)C(N)=O for me?
Reply | 800

[A] CC(C)C[C@H](NC(=O)[C@H](CC(C)C)NC(=O)[C@H](Cc1ccc(CN)cc1)NC(=O)[C@H](C)N)C(=O)N[C@@H](CCCNC(=N)N)C(N)=O (H-A[Phe(4-CH2NH2)]LLR-NH2)
[B] CC(C)C[C@H](NC(=O)[C@H](CCCNC(=N)N)NC(=O)[C@H](Cc1ccc(F)cc1)NC(=O)[C@H](C)N)C(=O)N[C@@H](CCCNC(=N)N)C(N)=O (H-A[Phe(4-F)]RLR-NH2)
[C] CC(C)C[C@H](NC(=O)[C@H](Cc1ccccc1)NC(=O)[C@@H](N)CO)C(=O)N[C@@H](CC(C)C)C(=O)N[C@H](CCCNC(=N)N)C(N)=O
[D] CC(C)C[C@H](NC(=O)[C@H](CC(C)C)NC(=O)[C@H](Cc1ccccc1)NC(=O)C(C)(C)N)C(=O)N[C@@H](CCCNC(=N)N)C(N)=O (H-[Aib]FLLR-NH2)
Ask | Sort the molecules on EC50; start with the lowest figure. Please list the labels in the order you were asked to rank them.
Reply | B, C, D, A

====

# Experiment: Evaluated for the activation of human thrombin receptor measured by platelet aggregation
pEC50: −log10 of the molar value. Where a SMILES comes first, the peptide text is derived from it. [ ]: non-standard residue; d: D form. Phe(F5) = N[C@@H](Cc1c(F)c(F)c(F)c(F)c1F)C(=O)O; NMeA = CN[C@@H](C)C(=O)O
Readout kind: pEC50

Ask | Can you look up the measured pEC50 of CC(C)C[C@H](NC(=O)[C@H](CC(C)C)NC(=O)[C@H](Cc1ccccc1)NC(=O)[C@H](C)N)C(=O)N[C@@H](CCCNC(=N)N)C(N)=O (H-AFLLR-NH2) for me?
Reply | 6.10

Ask | Can you look up the measured pEC50 of CN[C@@H](C)C(=O)N[C@@H](Cc1ccccc1)C(=O)N[C@@H](CC(C)C)C(=O)N[C@@H](CC(C)C)C(=O)N[C@@H](CCCNC(=N)N)C(N)=O (H-[NMeA]FLLR-NH2) for me?
Reply | 3.22

Ask | Can you look up the measured pEC50 of CC(C)C[C@H](NC(=O)[C@H](CC(C)C)N(C)C(=O)[C@H](Cc1ccccc1)NC(=O)[C@@H](N)CO)C(=O)N[C@@H](CCCNC(=N)N)C(N)=O for me?
Reply | 3.46

[P] CC(C)C[C@H](NC(=O)[C@H](CC(C)C)NC(=O)[C@H](Cc1c(F)c(F)c(F)c(F)c1F)NC(=O)[C@H](C)N)C(=O)N[C@@H](CCCNC(=N)N)C(N)=O (H-A[Phe(F5)]LLR-NH2)
[Q] CC(C)C[C@H](NC(=O)[C@H](CC(C)C)NC(=O)[C@H](Cc1ccccc1)NC(=O)[C@@H](N)CO)C(=O)N[C@@H](CCCNC(=N)N)C(=O)N[C@@H](CC(N)=O)C(N)=O
Ask | Hi team, can someone confirm which has the larger pEC50: P or Q ? Thanks. The response must carry the label of the picked entry.
Reply | Q

====

# Experiment: Evaluated for the activation of human thrombin receptor measured by platelet aggregation
pEC50: −log10 of the molar value. Where a SMILES comes first, the peptide text is derived from it. [ ]: non-standard residue; d: D form. Phe(4-F) = N[C@@H](Cc1ccc(F)cc1)C(=O)O; NMeL = CN[C@@H](CC(C)C)C(=O)O
Readout kind: pEC50

Ask | Can you look up the measured pEC50 of CC(C)C[C@H](NC(=O)[C@H](Cc1ccccc1)NC(=O)[C@H](C)N)C(=O)N(C)[C@@H](CC(C)C)C(=O)N[C@@H](CCCNC(=N)N)C(N)=O (H-AFL[NMeL]R-NH2) for me?
Reply | 3.59

Ask | Can you look up the measured pEC50 of CC(C)C[C@H](NC(=O)[C@H](CC(C)C)NC(=O)[C@H](Cc1ccccc1)NC(=O)[C@@H](N)CO)C(=O)N[C@@H](CCCN=C(N)N)C(=O)N[C@@H](CC(N)=O)C(=O)N1CCC[C@H]1C(N)=O (H-SFLLRNP-NH2) for me?
Reply | 6.30

[a] CC(C)C[C@H](NC(=O)[C@H](CC(C)C)NC(=O)[C@H](Cc1ccc(F)cc1)NC(=O)[C@H](C)N)C(=O)N[C@@H](CCCNC(=N)N)C(N)=O (H-A[Phe(4-F)]LLR-NH2)
[b] CC(C)C[C@H](NC(=O)[C@H](Cc1ccccc1)NC(=O)[C@@H](N)CO)C(=O)N[C@@H](C)C(=O)N[C@@H](CCCNC(=N)N)C(N)=O (H-SFLAR-NH2)
Ask | Hi team, can someone confirm which has the larger pEC50: a or b ? Thanks. The response must carry the label of the picked entry.
Reply | a

====

# Experiment: Evaluated for the activation of human thrombin receptor measured by platelet aggregation
Where a SMILES comes first, the peptide text is derived from it. [ ]: non-standard residue; d: D form. Phe(4-Cl) = N[C@@H](Cc1ccc(Cl)cc1)C(=O)O; Phe(4-NH2) = Nc1ccc(C[C@H](N)C(=O)O)cc1; NMeR = CN[C@@H](CCCNC(=N)N)C(=O)O
Readout kind: EC50 (µM)

Ask | Can you look up the measured EC50 of CC(C)C[C@H](NC(=O)[C@H](CC(C)C)NC(=O)[C@H](Cc1ccc(N)cc1)NC(=O)[C@H](C)N)C(=O)N[C@@H](CCCNC(=N)N)C(N)=O (H-A[Phe(4-NH2)]LLR-NH2) for me?
Reply | 235

[a] CC(C)C[C@H](NC(=O)[C@H](Cc1ccccc1)NC(=O)[C@H](C)N)C(=O)N[C@@H](CC(C)C)C(=O)N(C)[C@@H](CCCNC(=N)N)C(N)=O (H-AFLL[NMeR]-NH2)
[b] CC(C)C[C@H](NC(=O)[C@H](CC(C)C)NC(=O)[C@H](Cc1ccc(Cl)cc1)NC(=O)[C@H](C)N)C(=O)N[C@@H](CCCNC(=N)N)C(N)=O (H-A[Phe(4-Cl)]LLR-NH2)
Ask | Hi team, can someone confirm which has the larger EC50: a or b ? Thanks. The response must carry the label of the picked entry.
Reply | a
(a: 800 µM, b: 0.7 µM)
